Sourced from paper PMC8951032

Test system: vancomycin-resistant E. faecalis (VRE) 342B
Assay: In vitro antienterococcal activity, microtitration broth MIC
Type: cell-based, Enterococcus faecalis
Conditions: 24 h, read-out: log(1/MIC [M]) VRE1 (converted)
Would you mind telling me the reported MIC of each entry?
Give just the number in M; leave the unit off.

Incoming: Recorded MIC for O=C(/C=C/c1ccc(Cl)c(Cl)c1)Nc1cc(C(F)(F)F)cc(C(F)(F)F)c1 [2q] , please?
Outgoing: 9.33e-06

Incoming: Next: O=C(/C=C/c1ccc(Cl)c(Cl)c1)Nc1cccc(C(F)(F)F)c1 [2i]
Outgoing: 2.24e-05

Incoming: How about this molecule: O=C(/C=C/c1ccc(Cl)c(Cl)c1)Nc1ccc(OC(F)(F)F)cc1 [2k]
Outgoing: 2.14e-05

Incoming: Item: O=C(/C=C/c1ccc(Cl)cc1)Nc1cc(C(F)(F)F)cc(C(F)(F)F)c1 [1q]
Outgoing: 0.000646

Incoming: Note, next up: O=C(/C=C/c1ccc(Cl)c(Cl)c1)Nc1ccc(C(F)(F)F)cc1 [2j]
Outgoing: 1.12e-05

###

Experiment: Lipophilicity determination by RP-HPLC (log k, log D)
Format: physicochemical
Details: MeOH 72%/H2O 28%
I'd be grateful if you could share measured log k for these entries.
Number only, please.

Incoming: Form field: reported log k of O=C(/C=C/c1ccc(Cl)c(Cl)c1)Nc1ccc(F)cc1F [2l]
Outgoing: 0.6989

Incoming: Note, next up: O=C(/C=C/c1ccc(Cl)c(Cl)c1)Nc1ccccc1Cl [2e]
Outgoing: 0.6488

Incoming: Next record, please: O=C(/C=C/c1ccc(Cl)c(Cl)c1)Nc1ccc(Cl)cc1Cl [2n]
Outgoing: 1.0932

Incoming: Thanks! And O=C(/C=C/c1ccc(Cl)cc1)Nc1ccc(F)cc1F [1l] ?
Outgoing: 0.5746

Incoming: For O=C(/C=C/c1ccc(Cl)cc1)Nc1cc(C(F)(F)F)cc(C(F)(F)F)c1 [1q] then?
Outgoing: 1.3064

###

Please go through the items and note down their log10 MIC.
Tested on: vancomycin-resistant E. faecalis (VRE) 368
Test: In vitro antienterococcal activity, microtitration broth MIC
Format: cell-based, Enterococcus faecalis
Conditions: 24 h; VRE 368; read-out: log(1/MIC [M]) VRE2 (converted)
Please be aware that the numbers have been log10-transformed from MIC in M.

Incoming: Please report the recorded log10 MIC for "O=C(/C=C/c1ccc(Cl)cc1)Nc1cc(C(F)(F)F)cc(C(F)(F)F)c1" .
Outgoing: -3.49

Incoming: What would you report for "O=C(/C=C/c1ccc(Cl)c(Cl)c1)Nc1ccc(C(F)(F)F)cc1" ?
Outgoing: -4.95

Incoming: And the next one, "O=C(/C=C/c1ccc(Cl)c(Cl)c1)Nc1cc(C(F)(F)F)cc(C(F)(F)F)c1" ?
Outgoing: -4.73

Incoming: Now consider "O=C(/C=C/c1ccc(Cl)c(Cl)c1)Nc1cccc(C(F)(F)F)c1" .
Outgoing: -4.65

Incoming: Repeat with "O=C(/C=C/c1ccc(Cl)c(Cl)c1)Nc1ccc(OC(F)(F)F)cc1"
Outgoing: -4.37

###

Test system: methicillin-resistant S. aureus SA 3202
Assay: In vitro antistaphylococcal activity, microtitration broth MIC
Format: cell-based
Details: Staphylococcus aureus; MRSA SA 3202, 24 h; read-out: MIC MRSA3
Label Satisfied when MIC < 0.8 µM; otherwise Not satisfied.

Incoming: Given the entry "O=C(/C=C/c1ccc(Cl)c(Cl)c1)Nc1ccc(C(F)(F)F)cc1" , would its reported MIC be below 0.8 µM?
Outgoing: Satisfied

Incoming: What do you have for "O=C(/C=C/c1ccc(Cl)c(Cl)c1)Nc1cccc(C(F)(F)F)c1" ?
Outgoing: Not satisfied

Incoming: Now consider "O=C(/C=C/c1ccc(Cl)cc1)Nc1cc(Cl)cc(Cl)c1" .
Outgoing: Satisfied

Incoming: Let us now turn to "O=C(/C=C/c1ccc(Cl)c(Cl)c1)Nc1ccccc1"
Outgoing: Not satisfied

Incoming: Cool, now CC1(C)S[C@@H]2[C@H](NC(=O)[C@H](N)c3ccccc3)C(=O)N2[C@H]1C(=O)O [AMP, ampicillin, reference compound]
Outgoing: Not satisfied

Incoming: Same again, this time with "O=C(/C=C/c1ccc(Cl)c(Cl)c1)Nc1cc(C(F)(F)F)cc(C(F)(F)F)c1"
Outgoing: Satisfied

Incoming: Please do the same for "O=C(/C=C/c1ccc(Cl)c(Cl)c1)Nc1ccc(OC(F)(F)F)cc1" as well.
Outgoing: Not satisfied

Incoming: Also check "O=C(/C=C/c1ccc(Cl)cc1)Nc1cccc(C(F)(F)F)c1"
Outgoing: Not satisfied

Incoming: // query: "O=C(/C=C/c1ccc(Cl)cc1)Nc1cc(C(F)(F)F)cc(C(F)(F)F)c1"
Outgoing: Satisfied
